- Test system: BT-549 breast
- Run description: NCI-60 one-dose screen, 48 h
- Test parameters: 10 µM unless noted
This is part of a sample that, as a whole, favours compounds with a hit. Of some 83,000 tested, about 20% had one in any assay. Calls of active or inactive are those of the source. Rule for the calls: active = growth percent below 10; inactive = the rest.
Respond only with the outcome that fits, drawn from class 1 for active, class 0 for inactive

Reference set (3 entries):
Please state the recorded outcome for this compound: COc1ccc(CN2CCc3c(Sc4ccccc4)nc(N)nc3C2=O)c(OC)c1
class 0

Just curious, what result did Nc1cccc(Cl)c1N get here?
class 0

Please state the recorded outcome for this compound: COc1cccc(-c2nc3sccn3c2-c2ccnc(NCCCNS(=O)(=O)c3ccc(C(F)(F)F)cc3)c2)c1
class 0

---
What was the test verdict on COc1ccc(/C(C#N)=C/c2cc(OC)c(OC)c(OC)c2)cc1 ?
class 0

Recorded test call requested for COc1ccc(S(=O)(=O)n2cc(C(=O)C(=O)Nc3ccncc3)c3ccccc32)cc1F
class 0

Record lookup: outcome of this test for N/C(=N\C(N)=N\c1nc2ccccc2s1)c1ccncc1 ?
class 0

Hey, what did the test say about CC(C)NCCCNC1=C(Cl)C(=O)c2ccccc2C1=O ?
class 0

Which outcome was entered for the compound O=C(/C=C/c1ccccc1)c1cccc(O)c1 in this test?
class 0

Any idea what this test logged for CCOC(=O)C1CCNC(=O)C1=O (configuration not stated) ?
class 0

Assay result, entry Cn1c(=O)c2[nH]c(C3CC=CCC3)nc2n(C)c1=O (configuration not stated) — outcome?
class 0

Test call, this compound: Fc1ccc(Nc2nc(NCCNc3ccnc4cc(Cl)ccc34)nc(N3CCOCC3)n2)cc1
class 0

Answer briefly: the call reported for CCOC(=O)CN1/C(=N/c2sc3c(c2C(=O)OCC)CCN(C(=O)OCC)C3)SC(=O)/C1=C\C(=O)OC in this assay.
class 0
